Target: β-receptor (guinea pig right atria) (Cavia porcellus, UniProt H0W3H1)
Construct: from tissue; host or cells: guinea pig right atria
Sequence (H0W3H1 1-470): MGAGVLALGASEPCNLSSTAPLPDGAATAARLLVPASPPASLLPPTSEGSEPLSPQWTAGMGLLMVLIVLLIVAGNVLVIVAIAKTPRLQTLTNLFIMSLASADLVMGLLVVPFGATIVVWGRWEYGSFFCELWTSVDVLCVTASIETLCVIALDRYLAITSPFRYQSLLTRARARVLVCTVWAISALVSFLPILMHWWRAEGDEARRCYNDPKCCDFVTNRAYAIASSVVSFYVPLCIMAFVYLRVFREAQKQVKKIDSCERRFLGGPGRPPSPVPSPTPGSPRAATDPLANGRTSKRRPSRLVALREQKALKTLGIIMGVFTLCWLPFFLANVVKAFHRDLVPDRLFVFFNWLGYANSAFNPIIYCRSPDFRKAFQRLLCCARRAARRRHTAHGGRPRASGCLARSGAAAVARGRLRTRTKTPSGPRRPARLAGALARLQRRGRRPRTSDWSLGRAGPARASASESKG
Experiment: Beta-blocking activity in vitro, guinea pig right atria (antagonism of isoproterenol-induced rate response)
Assay type: cell-based
Conditions: 60-minute incubation, 37° C, Furchgott method, read-out: pA2 Atria (converted)
Below, each of the molecules is paired with its reported Kb value.
Answer format: numeric, nM implied, no suffix.

Problem: Input CC(C)(CNC(=O)C1CCCCC1)NCC(O)COCc1cc(O)cc(O)c1 (centres unmarked) , output reported Kb.
Solution: 200

Problem: Input CC(C)(CNC(=O)c1ccccc1)NCC(O)COCc1cc(O)cc(O)c1 (centres unmarked) , output reported Kb.
Solution: 79.4

Problem: Input CC(C)(C)NCC(O)COCc1cc(O)cc(O)c1 (centres unmarked) , output reported Kb.
Solution: 316

Problem: Input CC(C)(C)NCC(O)COCc1cc(O)c(O)c(O)c1 (centres unmarked) , output reported Kb.
Solution: 1000

Problem: Input CC(C)C(=O)NCC(C)(C)NCC(O)COCc1cc(O)cc(O)c1 (centres unmarked) , output reported Kb.
Solution: 79.4

Numbers sourced from patent US5064827A.
